Test system: MCF-7
Assay: MTT anti-proliferative assay toward MCF-7
Conditions: Homo sapiens, MCF7, 48 h, read-out: IC50 toward MCF-7
Measured quantity: IC50 (µM)
Could you give me the number in µM? Just the number is fine.

input: Give its IC50 value. Item: COc1ccc(C2CC(c3ccc(OC)c(OC)c3)=NN2C2=NC(=O)C(=C3C(=O)Nc4ccccc43)S2)cc1 (stereo not shown) [Compound 8a]
output: 21.3

input: Give its IC50 value. Item: COc1ccc(C2=NN(c3nc(C)c(N=Nc4ccc(S(N)(=O)=O)cc4)s3)C(c3ccc(Cl)cc3)C2)cc1OC (stereo not shown) [Compound 4d]
output: 17.1

input: Give its IC50 value. Item: COc1ccc(C2=NN(C3=NC(=O)CS3)C(c3ccc(Cl)cc3)C2)cc1OC (stereo not shown) [Compound 6b]
output: 5.64

input: Give its IC50 value. Item: COc1ccc(C2=NN(C3=NC(=O)C(=NNc4ccc(Cl)cc4)S3)C(c3ccc(Cl)cc3)C2)cc1OC (stereo not shown) [Compound 5c]
output: 28

input: Give its IC50 value. Item: COc1ccc(C2CC(c3ccc(OC)c(OC)c3)=NN2C2=NC(=O)C(=Cc3ccccc3)S2)cc1 (stereo not shown) [Compound 7a]
output: 17.8

* * *

Items are presented alongside their recorded melting point.

// known answers, use as guide
COc1ccc(C2=NN(c3nc(C)c(N=Nc4ccc(S(N)(=O)=O)cc4)s3)C(c3ccc(Cl)cc3)C2)cc1OC (stereo not shown) : 208 to 210 °C
COc1ccc(C2CC(c3ccc(OC)c(OC)c3)=NN2C2=NC(=O)C(=C3C(=O)Nc4ccccc43)S2)cc1 (stereo not shown) : > 300 °C
COc1ccc(C2CC(c3ccc(OC)c(OC)c3)=NN2c2nc(C)c(N=Nc3ccc(Cl)cc3)s2)cc1 (stereo not shown) : 192 to 194 °C

Moving on to the next molecule.
input: Give its melting point value. Item: COc1ccc(C2=NN(C3=NC(=O)C(=NNc4ccc(S(N)(=O)=O)cc4)S3)C(c3ccc(Cl)cc3)C2)cc1OC (stereo not shown)
output: 292 to 294 °C

* * *

Items are presented alongside their recorded melting point.

// known answers, use as guide
COc1ccc(C2CC(c3ccc(OC)c(OC)c3)=NN2C2=NC(=O)C(=Cc3ccccc3)S2)cc1 (stereo not shown) : 294 to 296 °C
COc1ccc(C2=NN(C3=NC(=O)C(=Cc4ccccc4)S3)C(c3ccc(Cl)cc3)C2)cc1OC (stereo not shown) : 283 to 285 °C
COc1ccc(C=C2SC(N3N=C(c4ccc(OC)c(OC)c4)CC3c3ccc(OC)cc3)=NC2=O)cc1 (stereo not shown) : 245 to 247 °C
COc1ccc(C2=NN(C3=NC(=O)C(=C4C(=O)Nc5ccccc54)S3)C(c3ccc(Cl)cc3)C2)cc1OC (stereo not shown) : > 300 °C
COc1ccc(C2=NN(c3nc(C)c(N=Nc4ccc(Cl)cc4)s3)C(c3ccc(Cl)cc3)C2)cc1OC (stereo not shown) : 210 to 212 °C

input: Give its melting point value. Item: COc1ccc(C2=NN(C3=NC(=O)C(=NNc4ccc(Cl)cc4)S3)C(c3ccc(Cl)cc3)C2)cc1OC (stereo not shown)
output: 278 to 280 °C

input: Give its melting point value. Item: COc1ccc(C=C2SC(N3N=C(c4ccc(OC)c(OC)c4)CC3c3ccc(Cl)cc3)=NC2=O)cc1 (stereo not shown)
output: 250 to 252 °C
